- TARGET_OF_ASSAY: UniProt O70526
- Sequence (O70526 whole entry): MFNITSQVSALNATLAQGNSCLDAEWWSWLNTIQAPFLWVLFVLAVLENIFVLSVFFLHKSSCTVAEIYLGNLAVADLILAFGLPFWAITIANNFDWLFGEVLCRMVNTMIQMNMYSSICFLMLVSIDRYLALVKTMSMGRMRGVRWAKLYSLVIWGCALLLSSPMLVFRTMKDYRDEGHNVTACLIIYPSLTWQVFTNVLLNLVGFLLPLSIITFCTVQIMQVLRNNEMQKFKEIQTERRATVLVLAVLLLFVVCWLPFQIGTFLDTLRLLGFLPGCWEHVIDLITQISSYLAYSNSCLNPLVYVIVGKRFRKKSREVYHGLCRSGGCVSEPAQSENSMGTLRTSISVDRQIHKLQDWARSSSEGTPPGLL
- METHOD: Concentration required to inhibit specific binding of [3H]BK at 0.06 nM to Bradykinin receptor B2 in guinea pig ileum membrane preparations by 50%.
MEASURED_METRIC: IC50
State the result as a value with its unit after it.

Solved entries:
SMILES_DATA: CC(=O)Nc1ccc(/C=C/C(=O)NCC(=O)N(C)c2ccc(Cl)c(COc3cccn4c(Br)c(C)nc34)c2Cl)cn1.Cl.Cl
REPORTED_VALUE: 0.38 nM
//
SMILES_DATA: COc1cccc(NC(=O)NCC(=O)N(C)c2ccc(Cl)c(COc3cccn4c(Br)c(C)nc34)c2Cl)c1.Cl
REPORTED_VALUE: 2.3 nM
//
SMILES_DATA: Cc1ccc(NC(=O)NCC(=O)N(C)c2ccc(Cl)c(COc3cccn4c(Br)c(C)nc34)c2Cl)cc1.Cl
REPORTED_VALUE: 12 nM

Given the compound Cc1nc2c(OCc3c(Cl)ccc(N(C)C(=O)CNC(=O)CCCc4ccccc4)c3Cl)cccn2c1Br , write its reported IC50.
8.9 nM

Given the compound Cc1nc2c(OCc3c(Cl)ccc(N(C)C(=O)CNC(=O)NCc4ccccc4)c3Cl)cccn2c1Br.Cl , write its reported IC50.
11 nM

Given the compound CNC(=O)Nc1ccc(/C=C/C(=O)NCC(=O)N(C)c2ccc(Cl)c(COc3cccn4c(Br)c(C)nc34)c2Cl)cc1.Cl , write its reported IC50.
0.89 nM

Given the compound Cc1nc2c(OCc3c(Cl)ccc(N(C)C(=O)CNC(=O)Nc4cccc(C#N)c4)c3Cl)cccn2c1Br.Cl , write its reported IC50.
1.4 nM

Given the compound CNC(=O)c1ccc(/C=C/C(=O)NCC(=O)N(C)c2ccc(Cl)c(COc3cccn4c(Br)c(C)nc34)c2Cl)cc1.Cl , write its reported IC50.
0.5 nM

Given the compound Cc1cccc(NC(=O)NCC(=O)N(C)c2ccc(Cl)c(COc3cccn4c(Br)c(C)nc34)c2Cl)c1 , write its reported IC50.
2.7 nM

Given the compound CC(=O)Nc1ccc(/C=C/C(=O)NCC(=O)N(C)c2ccc(Cl)c(COc3cccn4c(Br)c(C)nc34)c2Cl)cc1.Cl , write its reported IC50.
0.55 nM

Given the compound CC(=O)c1cccc(NC(=O)NCC(=O)N(C)c2ccc(Cl)c(COc3cccn4c(Br)c(C)nc34)c2Cl)c1.Cl , write its reported IC50.
0.79 nM

Given the compound CCOC(=O)c1cccc(NC(=O)NCC(=O)N(C)c2ccc(Cl)c(COc3cccn4c(Br)c(C)nc34)c2Cl)c1 , write its reported IC50.
2.2 nM

Given the compound Cc1nc2c(OCc3c(Cl)ccc(N(C)C(=O)CNC(=O)/C=C/c4ccc(C(=O)N(C)C)nc4)c3Cl)cccn2c1Br.Cl.Cl , write its reported IC50.
0.44 nM

###

// reported pIC50 per item
- TARGET_OF_ASSAY: B2 bradykinin receptor (Homo sapiens, UniProt P30411)
- Sequence (P30411 whole entry): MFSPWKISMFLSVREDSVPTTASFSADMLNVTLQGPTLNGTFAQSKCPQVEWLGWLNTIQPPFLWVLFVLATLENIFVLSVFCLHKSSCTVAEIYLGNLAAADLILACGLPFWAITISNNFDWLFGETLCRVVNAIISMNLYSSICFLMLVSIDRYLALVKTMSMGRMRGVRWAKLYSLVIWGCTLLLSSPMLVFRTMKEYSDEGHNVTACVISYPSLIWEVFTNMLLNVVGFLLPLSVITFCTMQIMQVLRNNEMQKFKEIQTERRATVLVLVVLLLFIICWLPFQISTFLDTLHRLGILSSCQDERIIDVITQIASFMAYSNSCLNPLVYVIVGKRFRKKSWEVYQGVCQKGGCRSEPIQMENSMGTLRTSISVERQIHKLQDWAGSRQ
- METHOD: Concentration required to inhibit specific binding of [3H]BK at 1.2 nM to A-431 cells (human epidermoid carcinoma) which express Bradykinin receptor B2 by 50%.
Hey, just a heads up that pIC50 is the negative log base 10 of the concentration in molar.

Solved entries:
SMILES_DATA: Cc1nc2c(OCc3c(Cl)ccc(N(C)C(=O)CNC(=O)/C=C/c4ccc(NS(C)(=O)=O)cc4)c3Cl)cccn2c1Br
REPORTED_VALUE: 8.32

SMILES_DATA: Cc1nc2c(OCc3c(Cl)ccc(N(C)C(=O)CNC(=O)Nc4cccc(C(=O)O)c4)c3Cl)cccn2c1Br
REPORTED_VALUE: 5.28

SMILES_DATA: Cc1nc2c(OCc3c(Cl)ccc(N(C)C(=O)CNC(=O)Nc4cccc(C#N)c4)c3Cl)cccn2c1Br.Cl
REPORTED_VALUE: 6.72

Given the molecule CNC(=O)c1ccc(/C=C/C(=O)NCC(=O)N(C)c2ccc(Cl)c(COc3cccn4c(Br)c(C)nc34)c2Cl)cn1.Cl.Cl , write its reported pIC50.
8.04
